# credit: patent US20180127503A1

Target: T1, human ROR2 expressed on the cell surface (human, UniProt Q01974 34-943)
T1 construct: Endogenous ROR2 of human tumour cell lines; also called cell surface ROR2; ROR2 on tumour cell lines
T1 sequence (Q01974 34-943 limits assumed): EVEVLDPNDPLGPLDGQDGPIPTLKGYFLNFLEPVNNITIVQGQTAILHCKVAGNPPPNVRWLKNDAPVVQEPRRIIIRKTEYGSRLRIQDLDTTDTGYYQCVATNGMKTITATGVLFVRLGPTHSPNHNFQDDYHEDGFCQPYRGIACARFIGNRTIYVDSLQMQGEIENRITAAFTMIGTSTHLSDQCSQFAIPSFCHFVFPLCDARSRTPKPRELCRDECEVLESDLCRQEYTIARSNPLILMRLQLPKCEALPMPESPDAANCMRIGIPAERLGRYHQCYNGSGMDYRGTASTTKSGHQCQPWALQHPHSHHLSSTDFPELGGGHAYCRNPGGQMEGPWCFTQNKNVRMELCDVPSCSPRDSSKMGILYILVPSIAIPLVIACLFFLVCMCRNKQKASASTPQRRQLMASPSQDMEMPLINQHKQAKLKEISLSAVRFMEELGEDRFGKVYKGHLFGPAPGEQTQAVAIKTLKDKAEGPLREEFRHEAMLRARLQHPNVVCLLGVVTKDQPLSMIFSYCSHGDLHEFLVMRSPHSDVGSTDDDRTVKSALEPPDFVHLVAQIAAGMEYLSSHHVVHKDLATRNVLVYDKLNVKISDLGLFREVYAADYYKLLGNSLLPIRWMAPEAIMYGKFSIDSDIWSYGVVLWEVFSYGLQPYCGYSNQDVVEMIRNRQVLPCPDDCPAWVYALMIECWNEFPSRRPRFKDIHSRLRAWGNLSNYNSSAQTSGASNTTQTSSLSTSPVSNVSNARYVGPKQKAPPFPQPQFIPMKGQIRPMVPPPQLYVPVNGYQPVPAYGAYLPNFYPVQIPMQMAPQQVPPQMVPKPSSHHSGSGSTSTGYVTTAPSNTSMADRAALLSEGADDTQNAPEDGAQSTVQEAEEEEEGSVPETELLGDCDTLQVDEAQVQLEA
Assay: flow cytometry, OCM1 cells (melanoma)
Design: unit not given here
Would you kindly list binding intensity for each of these binders?
Numbers only.

Solved cases below.
1) ROR2-241 full length human IgG1 antibody (antibody, V domains shown) VH: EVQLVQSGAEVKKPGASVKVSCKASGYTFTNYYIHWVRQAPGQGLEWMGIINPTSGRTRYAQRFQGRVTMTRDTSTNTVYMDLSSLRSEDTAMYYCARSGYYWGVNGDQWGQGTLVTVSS VL: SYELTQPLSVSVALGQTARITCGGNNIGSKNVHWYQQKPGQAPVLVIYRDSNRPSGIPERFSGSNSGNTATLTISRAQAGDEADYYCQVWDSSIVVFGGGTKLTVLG: 19
2) ROR2-27 full length human IgG1 antibody (antibody, V domains shown, also called clone #27; clone #027 IgG1) VH: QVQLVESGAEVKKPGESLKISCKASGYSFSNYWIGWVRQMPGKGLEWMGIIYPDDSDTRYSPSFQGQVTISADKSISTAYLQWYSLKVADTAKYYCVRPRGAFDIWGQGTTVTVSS VL: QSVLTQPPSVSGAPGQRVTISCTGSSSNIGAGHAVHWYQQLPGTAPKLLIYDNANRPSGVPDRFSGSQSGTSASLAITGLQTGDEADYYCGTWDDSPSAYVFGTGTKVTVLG: 6
3) ROR2-240 full length human IgG1 antibody (antibody, V domains shown, also called clone #240 IgG1) VH: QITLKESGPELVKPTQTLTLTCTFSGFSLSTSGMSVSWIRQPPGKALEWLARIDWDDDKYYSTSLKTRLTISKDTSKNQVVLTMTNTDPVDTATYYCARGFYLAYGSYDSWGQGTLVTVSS VL: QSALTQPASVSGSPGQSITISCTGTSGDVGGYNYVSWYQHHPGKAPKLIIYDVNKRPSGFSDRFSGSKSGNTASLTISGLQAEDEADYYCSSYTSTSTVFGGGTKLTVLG: 3

Proceeding to the next binder to report its binding intensity.
In: Data request, read-out binding intensity, for ROR2-23 full length human IgG1 antibody (antibody, V domains shown, The light chain of clone 023 is labelled kappa; also called clone #23; clone #023 IgG1) VH: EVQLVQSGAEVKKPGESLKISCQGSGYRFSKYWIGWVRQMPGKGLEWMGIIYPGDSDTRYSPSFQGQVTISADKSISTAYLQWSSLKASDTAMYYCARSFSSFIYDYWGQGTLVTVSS VL: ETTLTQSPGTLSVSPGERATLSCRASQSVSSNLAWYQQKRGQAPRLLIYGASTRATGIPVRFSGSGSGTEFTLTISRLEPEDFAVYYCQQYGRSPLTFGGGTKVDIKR
Out: 10
